Source listed as ChEMBL document CHEMBL6114961.

- targetEntity: Cytochrome P450 3A4 (Homo sapiens)
- Sequence (P08684 whole entry): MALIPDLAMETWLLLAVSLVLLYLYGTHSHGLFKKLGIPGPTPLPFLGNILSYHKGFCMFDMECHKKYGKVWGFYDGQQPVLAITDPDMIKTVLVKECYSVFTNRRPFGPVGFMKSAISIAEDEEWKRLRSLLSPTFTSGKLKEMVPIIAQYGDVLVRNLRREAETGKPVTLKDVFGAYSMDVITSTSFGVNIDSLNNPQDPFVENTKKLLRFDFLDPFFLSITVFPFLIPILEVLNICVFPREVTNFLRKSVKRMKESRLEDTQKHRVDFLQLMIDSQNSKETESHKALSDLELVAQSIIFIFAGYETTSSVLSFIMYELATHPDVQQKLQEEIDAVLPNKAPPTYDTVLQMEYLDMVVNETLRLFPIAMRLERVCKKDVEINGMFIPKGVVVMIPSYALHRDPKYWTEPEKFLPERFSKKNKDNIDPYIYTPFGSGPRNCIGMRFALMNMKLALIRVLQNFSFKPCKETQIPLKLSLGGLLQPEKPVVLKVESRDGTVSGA
pIC50: −log10 of the molar value.
reportedMetric: pIC50

In: Report value only: pIC50, Cytochrome P450 3A4 (Homo sapiens), "O=S(=O)(Nc1cc(-c2ccsc2)no1)c1ccccc1F"
Out: < 4.30

====

- targetEntity: Cytochrome P450 2D6 (Homo sapiens)
- Sequence (P10635 whole entry): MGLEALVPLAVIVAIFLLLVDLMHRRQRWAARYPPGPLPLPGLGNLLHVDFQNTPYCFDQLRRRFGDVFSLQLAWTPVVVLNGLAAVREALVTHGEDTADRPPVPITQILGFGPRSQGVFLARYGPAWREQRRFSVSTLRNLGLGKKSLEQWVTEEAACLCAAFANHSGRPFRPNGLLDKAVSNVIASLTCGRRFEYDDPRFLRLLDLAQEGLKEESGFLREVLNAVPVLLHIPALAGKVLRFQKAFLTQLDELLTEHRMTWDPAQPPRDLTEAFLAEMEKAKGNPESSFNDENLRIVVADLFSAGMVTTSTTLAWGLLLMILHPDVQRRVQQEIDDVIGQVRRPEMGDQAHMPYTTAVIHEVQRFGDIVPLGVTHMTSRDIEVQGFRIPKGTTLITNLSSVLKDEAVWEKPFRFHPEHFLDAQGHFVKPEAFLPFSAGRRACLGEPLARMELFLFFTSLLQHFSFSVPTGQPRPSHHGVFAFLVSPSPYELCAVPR
reportedMetric: IC50

In: Identify measured IC50 obtained with Cytochrome P450 2D6 (Homo sapiens) for "O=S(=O)(Nc1cc(-c2ccsc2)no1)c1ccccc1F" .
Out: > 50 µM

====

- Tested on: Mycobacterium tuberculosis
- assayExplanation: Antituberculosis activity against Mycobacterium tuberculosis H37Rv infected in human THP-1 cells assessed as reduction in bacterial growth pre-infected with bacteria for 24 hrs followed by compound addition and measured 3 days by luminescence based intramacrophage assay
- Assay type: functional, organism-based
Entries annotated with measured pEC50
Kindly note that pEC50 refers to -log10 of the concentration in mol/L and answer with the value alone.

smilesCode	pEC50
O=C(Nc1cc(-c2ccsc2)no1)c1ccccc1F	4.64
O=S(=O)(Nc1cc(-c2ccsc2)no1)c1ccccc1F	5.53
O=S(=O)(Nc1cc(-c2ccsc2)no1)c1cccc(F)c1	4.61

In: Please list pEC50 recorded for the compound "O=S(=O)(Nc1cc(-c2ccsc2)no1)C1CCCCC1"
Out: 4.60

In: For the compound "O=S(=O)(Nc1cc(-c2ccsc2)no1)c1ccc2c(c1)CCC2" , give its measured pEC50 value.
Out: 4.60

In: Output measured pEC50 for this item: "O=S(=O)(Nc1cc(-c2cccnc2)no1)c1ccccc1F"
Out: 4.61

In: Quickly give me recorded pEC50 for "Cc1cc(-c2cc(NS(=O)(=O)c3ccccc3F)on2)c(C)s1"
Out: 4.61

In: Give pEC50 for "CN(c1cc(-c2ccsc2)no1)S(=O)(=O)c1ccccc1F"
Out: 4.90

In: Recall and state the measured pEC50 for "O=S(=O)(Nc1cc(-c2ccsc2)no1)c1c(F)cccc1F" .
Out: 4.86

In: Look up and report measured pEC50 for this entry: "O=S(=O)(Nc1cc(-c2ccsc2)no1)c1ccc(F)cc1F"
Out: 4.60

In: Give me measured pEC50, please, for this compound: "O=S(=O)(Nc1cc(-c2ccsc2)no1)C1CCOCC1"
Out: 5.71

In: State its pEC50: "O=S(=O)(Nc1cc(-c2ccsc2)no1)c1ccccc1Cl"
Out: 4.83

In: Report pEC50, nothing else, for this compound: "O=S(=O)(Nc1cc(-c2ccsc2)no1)c1ccc2c(c1)CC2"
Out: 5.44

====

- assayExplanation: Apparent permeability in human Caco-2 cells across basolateral side to apical side
- Type: ADME, cell-based
reportedMetric: Papp B→A (×10⁻⁶ cm/s)
Express the result in ×10⁻⁶ cm/s but write the number alone.

In: Complete the entry with Papp B→A for "O=S(=O)(Nc1cc(-c2ccsc2)no1)c1ccccc1F"
Out: 27.3

====

- assayExplanation: Plasma protein binding in mouse assessed as unbound fraction
- Format: ADME, cell-free
reportedMetric: fraction unbound
Keep the answer to the number alone.

O=S(=O)(Nc1cc(-c2ccsc2)no1)c1ccccc1F 0.996

// switching to the query compound
In: Read off the recorded fraction unbound for "O=S(=O)(Nc1cc(-c2ccsc2)no1)C1CCOCC1"
Out: 0.845

====

- assayExplanation: Plasma concentration in male CD-1 mouse at 20 mg/kg, po measured for 6 hrs
- Type: ADME, organism-based
reportedMetric: concentration at 6 h (ng/mL)
# unit: ng/mL | format: bare number

In: Specify concentration at 6 h for "O=S(=O)(Nc1cc(-c2ccsc2)no1)C1CCOCC1" and stop.
Out: 613
